assay: Pharmacokinetic study in CD-1 mice (plasma and brain); format: in vivo; conditions: male, mouse, brain/plasma, oral, IG 5 mg/kg, 30 min, read-out: Brain-to-blood ratio
metric name: Kp at 30 min
Please give only the number in your answer, with no unit.

C[C@@]1(O)CC[C@H]2[C@H](CC[C@@H]3[C@@H]2CC[C@]2(C)[C@@H](C(=O)Cn4cnn(-c5cc(F)nc(F)c5)c4=O)CC[C@@H]32)C1 has a reported Kp at 30 min of 0.9

----------
assay: Pharmacokinetic study in SD rats (plasma and brain); assay type: in vivo; settings: male, rat, plasma, 6.1 umol/kg, IV 6.1 μmol/kg
metric name: half-life (h)
Express your answer in h, writing the number without its unit.

The recorded half-life for C[C@@]1(O)CC[C@H]2[C@H](CC[C@@H]3[C@@H]2CC[C@]2(C)[C@@H](C(=O)Cn4cnn(-c5cc(F)nc(F)c5)c4=O)CC[C@@H]32)C1 is 5.17
